# method: chemical genetic growth profiling, strain panel (AID 1159580);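 also: tested at 20 µM; growth read once vehicle control cultures reached saturation at 30 °C; 1 = growth at the plate median or of vehicle wells; lower values mean less growth of the strain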
# details: S. cerevisiae deletion strains, growth OD, locus YDR159W, strain sac3, active compounds read low
The campaign covered roughly 5,500 compounds. About 2,000 (36%) were called active. Inconclusive results (about 18%) are left out. The list shows a part of the results.
# strict inequality: normalized growth < 1 yields yes (1), everything else yields no (0)

query: Answer whether the compound N[C@@H](C(=O)O)[C@@H](O)[C@H](O)[C@H](O)CO has normalized growth strictly less than 1
result: no (0)

query: Answer whether the compound CC(=O)O[C@@H]1CC2C(C)(C)[C@H](O)C=C[C@]2(C)C2CC[C@@]3(C)[C@H](c4ccoc4)OC(=O)C4OC43[C@@]21C (some centres not stated) has normalized growth strictly less than 1
result: no (0)

query: Answer whether the compound CCC(C)C(=O)c1c(O)c(C)c2oc3c(C)c(O)c(C(=O)C(C)CC)c(O)c3c2c1O (configuration not stated) has normalized growth strictly less than 1
result: yes (1)
